In this section, each of the compounds is paired with its reported T/C.
test system: P388 leukemia ip, CD2F1 mice, survival T/C; experiment: NCI In Vivo Anticancer Drug Screen. Data for tumor model P388 Leukemia (intraperitoneal) in CD2F1 (CDF1) mice; details: endpoint: median survival time; dose: 6.25 mg/kg/injection; schedule: Q01DX009 (ip); vehicle: saline with Tween-80; higher = longer survival
Toxic doses and inconclusive results are not listed.

Recorded results for 4 compounds are shown here.
compound=CCOC(=O)N1Cc2cc3cc(Cl)ccc3nc2C1 observed_value="105 % of control"
compound="CC(c1ccccc1)[c-]1[c-][c-][c-][c-]1.[Cl][Zr][Cl].[c-]1[c-][c-][cH-][c-]1 (stereo not given)" observed_value="104 % of control"
compound=CS/C(=N/N=C(\C)c1ccccn1)[Se][Se]/C(=N/N=C(\C)c1ccccn1)SC observed_value="90 % of control"
compound="NNc1ncnc2c1ccn2C1OC(CO)C(O)C1O (stereo not given)" observed_value="108 % of control"

Field: next compound
Ask: Give T/C for the following compound: CC(=O)OC1C=CCC2C(=O)C34CC=CC(OC(C)=O)C3(C(=O)c3ccccc3C4=O)C(=O)C12 (stereo not given)
Result: 103 % of control

====

tested on: P388 leukemia ip, CD2F1 mice, survival T/C; assay: NCI In Vivo Anticancer Drug Screen. Data for tumor model P388 Leukemia (intraperitoneal) in CD2F1 (CDF1) mice; details: endpoint: median survival time; dose: 50.0 mg/kg/injection; schedule: Q01DX009 (ip); vehicle: saline with Tween-80; higher = longer survival
Inconclusive results and toxic doses are left out.
T/C values for the compounds below.

Recorded T/C, per entry:
compound="CC1(C)CC(NC(=O)c2ccccc2)C(=O)O1 (stereo not drawn)" readout_name=T/C observed_value="99 % of control"
compound=CSc1cc(SC)c(SC)nn1 readout_name=T/C observed_value="106 % of control"
compound=Cc1cnc2c([N+](=O)[O-])cc(C)c(C)c2c1 readout_name=T/C observed_value="99 % of control"
compound=CC(=O)CC(=O)CCCCC(=O)O readout_name=T/C observed_value="112 % of control"

Ask: // fetch T/C; item: CCOc1ccc2nc(SCCl)sc2c1 ; system: P388 leukemia ip, CD2F1 mice, survival T/C
Result: 99 % of control

Ask: Look up and report measured T/C (P388 leukemia ip, CD2F1 mice, survival T/C) for the following compound: O=C1CCS(=O)(=O)c2ccccc21
Result: 100 % of control

Ask: Give reported T/C for COc1cccc(OC)c1[N+](=O)[O-] (P388 leukemia ip, CD2F1 mice, survival T/C)
Result: 87 % of control

Ask: Write down the reported T/C (system: P388 leukemia ip, CD2F1 mice, survival T/C) of CCOC(=O)c1[nH]c2ccc(OC)c3c2c1CCC3=O
Result: 92 % of control

Ask: Enter T/C (test system P388 leukemia ip, CD2F1 mice, survival T/C) for COC(=O)C12C(=O)C(C(=O)OC)(C(c3ccccc3)=C1c1ccccc1)C1OC(=O)OC12 (stereo not drawn)
Result: 91 % of control

Ask: Give measured T/C for CCOC(=O)c1ccc(-n2c(C)nc3cc(Cl)ccc3c2=O)cc1 (P388 leukemia ip, CD2F1 mice, survival T/C).
Result: 104 % of control

Ask: Determine reported T/C for CCCCCCCCCCCCCCCC(=O)O ; test system: P388 leukemia ip, CD2F1 mice, survival T/C.
Result: 107 % of control

Ask: Report T/C on P388 leukemia ip, CD2F1 mice, survival T/C for this entry: O=[N+]([O-])c1cc2[nH]cnc2c([N+](=O)[O-])c1NCCO
Result: 110 % of control

Ask: GET T/C where system = P388 leukemia ip, CD2F1 mice, survival T/C and item = CCC1CN2CCc3cc(OC)c(OC)cc3C2CC1C#N (stereo not drawn)
Result: 93 % of control
